Entry source: ChEMBL document CHEMBL5321262

- experimental details: Cytotoxicity against African green monkey Vero E6 cells measured after 72 hrs by LDH assay
- Assay type: toxicity, cell-based, Vero C1008
- test settings: chlorocebus sabaeus
measured quantity: CC50 at 72 h (µM)
// units = µM; emit number, no label

{"columns": ["compound", "CC50 at 72 h / µM"],
 "data": [
  ["C=C(C)[C@@H]1CCC(C)=C[C@H]1c1c(O)cc(CCCCC)cc1O [CANNABIDIOL]", 28.9]
]}

Sample C=C(C)[C@@H]1CCC(C)=C[C@H]1c1c(O)cc(CCCCC)c(C(=O)O)c1O [CANNABIDIOLIC ACID] ; CC50 at 72 h observed: 119

Sample CCCc1cc(O)c(C/C=C(\C)CCC=C(C)C)c(O)c1 ; CC50 at 72 h observed: 58.1

Sample CCCCCc1cc(O)c(C/C=C(\C)CCC=C(C)C)c(O)c1 [CANNABIGEROL] ; CC50 at 72 h observed: 58

Sample C=C(C)[C@@H]1CCC(C)=C[C@H]1c1c(O)cc(CCC)cc1O [CANNABIDIVARIN] ; CC50 at 72 h observed: 26

Sample CCCCCc1cc(O)c2c(c1)OC(C)(CCC=C(C)C)C=C2 (stereo not drawn) [CANNABICHROMENE] ; CC50 at 72 h observed: 59.3

Sample CCCCCc1cc(O)c(C/C=C(\C)CCC=C(C)C)c(O)c1C(=O)O [CANNABIGEROLIC ACID] ; CC50 at 72 h observed: 43.9

Sample C=C(C)[C@@H]1CCC(C)=C[C@H]1c1c(O)cc(CCCCC)c(C(=O)OC)c1O ; CC50 at 72 h observed: 52.4
